assay: chemical genetic growth profiling, strain panel (AID 1159580);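 note: tested at 20 µM; growth read once vehicle control cultures reached saturation at 30 °C; 1 = growth at the plate median or of vehicle wells; lower values mean less growth of the strain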; conditions: S. cerevisiae deletion strains, growth OD, locus YER110C, active compounds read low
Hit rate of the full screen: of about 5,500 compounds, about 2,000 (36%) were called active. Another 18% or so got no clear call; they are omitted. The list shows a part of the results.
measured-property: normalized growth
The answer should be a number; do not append a unit.

What normalized growth value was documented for this compound, `CN(C)[C@@H]1C(=O)C(C(N)=O)=C(O)[C@@]2(O)C(=O)C3=C(O)c4c(O)ccc(Cl)c4[C@@H](O)[C@H]3C[C@@H]12` ?
0.98

What normalized growth value was documented for this compound, `COc1cc(C(C)=O)cc(OC)c1O` ?
1

What normalized growth value was documented for this compound, CC(C)c1ccc2c(c1)CCC1C(C)(C(N)=O)CCCC21C (centres undefined) ?
0.995

What normalized growth value was documented for this compound, `CC(=O)Oc1c(Cl)c(C)c2c(c1Cl)OC(=O)c1c(C)c(Cl)c(OC(C)=O)c(Cl)c1O2` ?
0.992

What normalized growth value was documented for this compound, `CCCOc1ccc2nc(NC(=O)OC)[nH]c2c1` ?
0.968

What normalized growth value was documented for this compound, `CCCc1c(OCCCCc2nn[nH]n2)ccc(C(C)=O)c1O` ?
0.977

What normalized growth value was documented for this compound, `CCCSc1ccc2nc(NC(=O)OC)[nH]c2c1` ?
0.976

What normalized growth value was documented for this compound, `Cc1cc(=O)oc2cc(O)c(O)cc12` ?
0.973

What normalized growth value was documented for this compound, `O=C(O)c1cc(O)c2c(c1)[C@@H]([C@H]1c3cc(C(=O)O)cc(O)c3C(=O)c3c(O[C@H]4O[C@H](CO)[C@@H](O)[C@H](O)[C@H]4O)cccc31)c1cccc(O[C@H]3O[C@H](CO)[C@@H](O)[C@H](O)[C@H]3O)c1C2=O` ?
1

What normalized growth value was documented for this compound, `CN(C)c1ccc(O)c2c1C[C@H]1C[C@H]3[C@H](N(C)C)C(=O)C(C(N)=O)=C(O)[C@@]3(O)C(=O)C1=C2O` ?
0.974

What normalized growth value was documented for this compound, CC12CCC3C(CC3(C)C)C(C)(CCC1=O)O2 (centres undefined) ?
1.02

What normalized growth value was documented for this compound, CC(=O)O[C@@H]1C=C[C@@]2(C)C(C[C@@H](OC(C)=O)[C@@]3(C)C4=CC(=O)O[C@@H](c5ccoc5)[C@]4(C)CCC23)C1(C)C (some centres undefined) ?
0.0742

What normalized growth value was documented for this compound, `COC(=O)c1c(OC)cc2c(c1C)Oc1c(Cl)c(OC(C)=O)c(Cl)c(C)c1C(=O)O2` ?
1.02

What normalized growth value was documented for this compound, `CC(=O)c1ccc(O)c(CC=C(C)C)c1` ?
0.965

What normalized growth value was documented for this compound, `CN(C)CCCN1c2ccccc2CCc2ccccc21` ?
0.988

What normalized growth value was documented for this compound, CC(=O)O[C@H]1CC[C@@]2(C)C(=CC(=O)C3C4CCC(C(C)CCCC(C)C)[C@@]4(C)CCC32)C1 (some centres undefined) ?
0.982

What normalized growth value was documented for this compound, CC(C)CCCC(C)C1CCC2C3CC[C@H]4C[C@@H](O)CC[C@]4(C)C3CC[C@]12C (some centres undefined) ?
1

What normalized growth value was documented for this compound, `CC[N+](C)(C)c1cccc(O)c1` ?
0.97

What normalized growth value was documented for this compound, `C[C@H]1c2cccc(O)c2C(O)=C2C(=O)[C@]3(O)C(O)=C(C(N)=O)C(=O)[C@@H](N(C)C)[C@@H]3[C@@H](O)[C@@H]21` ?
0.965

What normalized growth value was documented for this compound, CC(C)CCCC(C)C1CCC2C3CC(=O)[C@H]4C[C@@H](O)CC[C@]4(C)C3CC[C@]12C (some centres undefined) ?
1

What normalized growth value was documented for this compound, CC(C)CCCC(C)[C@H]1CCC2C3CC=C4C[C@@H](O)CC[C@]4(C)C3CC[C@@]21C (some centres undefined) ?
0.991

What normalized growth value was documented for this compound, `Oc1cccc(O)c1` ?
0.984

What normalized growth value was documented for this compound, CC(=O)O[C@@H]1CC2C(C)(C)C(=O)C=C[C@]2(C)C2CC[C@]3(C)C(=CC(=O)O[C@H]3c3ccoc3)[C@@]21C (some centres undefined) ?
0.966

What normalized growth value was documented for this compound, `COC(=O)c1c(C)c2c(c(C)c1O)OC(=O)c1c(C)c(Cl)c(O)c(Cl)c1O2` ?
1.03

What normalized growth value was documented for this compound, CC(C)CCCC(C)C1CCC2C3C[C@@H](O)[C@@]4(O)C[C@@H](O)CC[C@]4(C)C3CC[C@]12C (some centres undefined) ?
1.03

What normalized growth value was documented for this compound, `C[n+]1ccccc1/C=N/O` ?
1.01

What normalized growth value was documented for this compound, `CNCCCC12CCC(c3ccccc31)c1ccccc12` ?
0.989

What normalized growth value was documented for this compound, NCC(N)C(=O)c1ccccc1 (centres undefined) ?
1

What normalized growth value was documented for this compound, `NNCc1cccc(O)c1` ?
0.968

What normalized growth value was documented for this compound, `COC(=O)c1c(OC)cc2c(c1C)Oc1c(Cl)c(O)c(Cl)c(C)c1C(=O)O2` ?
0.929

What normalized growth value was documented for this compound, COc1ccc(C2Sc3ccccc3N(CCN(C)C)C(=O)C2OC(C)=O)cc1 (centres undefined) ?
1.05

What normalized growth value was documented for this compound, C[C@H](CCC(=O)O)[C@H]1CCC2C3C(=O)CC4CC(=O)CC[C@]4(C)C3CC(=O)[C@@]21C (some centres undefined) ?
1.01

What normalized growth value was documented for this compound, `CS(=O)(=O)Nc1ccc([N+](=O)[O-])cc1Oc1ccccc1` ?
0.986

What normalized growth value was documented for this compound, CC1(C)CC2C1CC[C@]1(CBr)CCC3C(CC(=O)O)C(=O)O[C@@]32C1 (some centres undefined) ?
0.984

What normalized growth value was documented for this compound, CC(CCC(=O)O)[C@H]1CCC2C3CC[C@@H]4CC(=O)CC[C@]4(C)C3C=C[C@@]21C (some centres undefined) ?
1.05

What normalized growth value was documented for this compound, CC(=O)OC1CCC2(C)C(CC(OC(C)=O)C3(C)C4=CC(=O)OC(c5ccoc5)C4(C)CCC23)C1(C)C (centres undefined) ?
1

What normalized growth value was documented for this compound, `C=C1C[C@]23C[C@@]1(O)CC[C@H]2[C@@]12C=C[C@H](O)[C@@](C)(C(=O)O1)[C@H]2[C@@H]3C(=O)O` ?
0.98

What normalized growth value was documented for this compound, `CN(C)CCCN1c2ccccc2Sc2ccc(C(F)(F)F)cc21` ?
0.961

What normalized growth value was documented for this compound, `CC(=O)c1cc(CC=C(C)C)c(O)c(CC=C(C)C)c1` ?
0.966

====

assay: chemical genetic growth profiling, strain panel (AID 1159580);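 note: tested at 20 µM; growth read once vehicle control cultures reached saturation at 30 °C; 1 = growth at the plate median or of vehicle wells; lower values mean less growth of the strain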; conditions: S. cerevisiae deletion strains, growth OD, locus YJL164C, strain tpk1, active compounds read low
The campaign covered roughly 5,500 compounds. About 2,000 (36%) were called active. Inconclusive results (about 18%) are left out. The list shows a part of the results.
Lab note: anything with normalized growth below 1 is marked fulfilled; values at 1 or higher are marked not fulfilled.

Could you please tell me whether normalized growth recorded for CC(Cc1cccc(C(F)(F)F)c1)NCCOC(=O)c1ccccc1 (stereo not drawn) is less than 1?
fulfilled

Could you please tell me whether normalized growth recorded for `COC(=O)c1c(C)c2c(c(C)c1O)OC(=O)c1c(C)c(Cl)c(O)c(Cl)c1O2` is less than 1?
fulfilled

Could you please tell me whether normalized growth recorded for `Cc1cc(=O)[nH]c(=S)[nH]1` is less than 1?
fulfilled

Could you please tell me whether normalized growth recorded for `CN(C)[C@@H]1C(=O)C(C(N)=O)=C(O)[C@@]2(O)C(=O)C3=C(O)c4c(O)ccc(Cl)c4[C@@](C)(O)[C@H]3C[C@@H]12` is less than 1?
fulfilled

Could you please tell me whether normalized growth recorded for CC1=CCCC2C1(C)CCC(C)C2(C)CC/C(C)=C/C[n+]1cn(C)c2c(N)ncnc21 (stereo not drawn) is less than 1?
fulfilled

Could you please tell me whether normalized growth recorded for `Oc1cccc(O)c1` is less than 1?
fulfilled

Could you please tell me whether normalized growth recorded for CC12CCC3C(CC3(C)C)C(C)(CCC1=O)O2 (stereo not drawn) is less than 1?
not fulfilled

Could you please tell me whether normalized growth recorded for `COc1cc(C/C=C/c2ccccc2)c(OC)cc1O` is less than 1?
fulfilled

Could you please tell me whether normalized growth recorded for `Cc1cn[nH]c1` is less than 1?
not fulfilled

Could you please tell me whether normalized growth recorded for `CN(C)CCCN1c2ccccc2Sc2ccc(Cl)cc21` is less than 1?
fulfilled

====

Record form. Attribute: normalized growth. Fill in for each entry.
assay: chemical genetic growth profiling, strain panel (AID 1159580);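 note: tested at 20 µM; growth read once vehicle control cultures reached saturation at 30 °C; 1 = growth at the plate median or of vehicle wells; lower values mean less growth of the strain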; conditions: S. cerevisiae deletion strains, growth OD, locus YOR270C, strain vph1, active compounds read low
The whole screen tested about 5,500 compounds, of which about 2,000 (36%) were called active. Roughly 18% stayed inconclusive and do not appear here. Some of the results follow.

What normalized growth value was documented for this compound, `OC[C@H]1O[C@@H](O[C@@H]2[C@@H](CO)O[C@](O)(CO)[C@H]2O)[C@H](O)[C@@H](O)[C@H]1O` ?
1.06 (inactive)

What normalized growth value was documented for this compound, CC(=O)O[C@H]1CCC2(C)C3=C(CCC2C1(C)C)[C@@]1(C)CC[C@@H](C(C)CCC=C(C)C)[C@]1(C)CC3 (stereo partly drawn) ?
0.999 (inactive)

What normalized growth value was documented for this compound, `COC(=O)/C(=C1\OC(=O)C(c2ccccc2)=C1O)c1ccccc1` ?
0.974 (inactive)

What normalized growth value was documented for this compound, CC1=CCCC2C1(C)CCC(C)C2(C)CC/C(C)=C/C[n+]1cn(C)c2c(N)ncnc21 (stereo not drawn) ?
0.95 (inactive)

What normalized growth value was documented for this compound, CC(=O)O[C@H]1CCC2(C)C3=C(CCC2C1(C)C)[C@]1(C)CCC(C(C)CCC=C(C)C)[C@@]1(C)CC3 (stereo partly drawn) ?
0.814 (inactive)

What normalized growth value was documented for this compound, `OC[C@H]1O[C@@](CO)(O[C@@H]2O[C@H](CO)[C@@H](O)[C@H](O)[C@H]2O)[C@@H](O[C@@H]2O[C@H](CO)[C@@H](O)[C@H](O)[C@H]2O)[C@@H]1O` ?
1.05 (inactive)

What normalized growth value was documented for this compound, CC(C)=CCCC(C)[C@@H]1CC[C@]2(C)C3=C(CC[C@@]12C)C1(C)CC[C@H](O)C(C)(C)C1CC3 (stereo partly drawn) ?
0.839 (inactive)

What normalized growth value was documented for this compound, `CN[C@@H]1[C@H](O)[C@H](NC)[C@H]2O[C@@]3(O)C(=O)C[C@@H](C)O[C@H]3O[C@@H]2[C@H]1O` ?
1.01 (inactive)
